# testedTarget: endogenous CD38 in HL60 cells (Homo sapiens, UniProt P28907)
# Construct: endogenous in cells
# Sequence (P28907 whole entry): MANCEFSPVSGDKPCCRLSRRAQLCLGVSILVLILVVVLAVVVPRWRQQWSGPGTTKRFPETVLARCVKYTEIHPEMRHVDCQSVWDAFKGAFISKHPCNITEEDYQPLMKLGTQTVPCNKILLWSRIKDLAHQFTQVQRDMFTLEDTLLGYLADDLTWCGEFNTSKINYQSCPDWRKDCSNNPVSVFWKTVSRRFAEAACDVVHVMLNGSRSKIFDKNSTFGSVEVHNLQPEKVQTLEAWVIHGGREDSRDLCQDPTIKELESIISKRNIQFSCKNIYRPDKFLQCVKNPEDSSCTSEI
# assayNotes: cellular CD38 assay in HL60 cells (cellular NAD levels)
# experimentalContext: all-trans retinoic acid, 24 hours, read-out: hCD38 HL60 ATRA NAD Cell Diaphorase IC50
readoutKind: IC50 (nM)

Some entries whose results are on file:
O=C(N[C@H]1CC[C@H](C(F)F)CC1)c1ccnc(-c2cncs2)n1 | 10100
CCO[C@H]1CC[C@H](NC(=O)c2nccc(-c3cncn3C)n2)CC1 | 2760
Cn1cncc1-c1cc(C(C)(C)C)nc(C(=O)Nc2ccc(C(F)F)nc2)n1 | 8510

[a] O=C(Nc1ccc(C(F)F)nc1)c1nc(O)cc(-n2ccnc2)n1
[b] Cn1cncc1-c1ccnc(C(=O)N[C@H]2CC[C@H](NCC(F)(F)F)CC2)n1
Sort a and b by IC50 descending and give the first. # answer = label of selected item
a
(a: 9420 nM, b: 2100 nM)

[P] Cn1cncc1-c1cncc(C(=O)NC2CC3(C2)CC(F)(F)C3)n1
[Q] O=C(Nc1ccc(C(F)F)nc1)c1ccnc(-n2ccnc2)n1
[R] Cc1cc(C(=O)N[C@H]2CC[C@H](C(F)F)CC2)nc(-n2ccnc2)n1
Order field: IC50 | Direction: descending (largest first) A complete answer lists every label in the requested sequence.
P, R, Q
(P: 1670 nM, R: 1130 nM, Q: 187 nM)

[P] Cn1cncc1-c1nc(C(=O)NC2CCC(F)(F)CC2)cc(C2CCOCC2)n1
[Q] COCCOc1cc(C(=O)Nc2ccc(C(F)(F)F)nc2)nc(-n2ccnc2)c1
[R] CC(C)(O)c1cc(C(=O)Nc2ccc(C(F)(F)F)nc2)nc(-n2ccnc2)n1
Form: Sort by [IC50] Order [ ascending ] A complete answer lists every label in the requested sequence.
Q, P, R

###

# testedTarget: mouse CD38 (Mus musculus, UniProt P56528)
# Sequence (P56528 whole entry): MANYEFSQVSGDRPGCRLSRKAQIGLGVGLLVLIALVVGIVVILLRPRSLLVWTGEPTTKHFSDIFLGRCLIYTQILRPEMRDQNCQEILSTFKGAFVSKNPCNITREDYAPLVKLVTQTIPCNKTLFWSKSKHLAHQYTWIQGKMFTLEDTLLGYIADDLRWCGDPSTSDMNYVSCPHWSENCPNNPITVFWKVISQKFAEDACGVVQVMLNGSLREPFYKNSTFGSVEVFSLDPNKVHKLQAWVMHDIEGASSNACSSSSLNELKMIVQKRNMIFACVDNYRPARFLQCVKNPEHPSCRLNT
# assayNotes: mouse recombinant CD38 enzyme assay (hydrolysis of NAD+)
# experimentalContext: read-out: mCD38 BioChem IC50
readoutKind: IC50 (µM)

Some entries whose results are on file:
COc1cc(C(=O)Nc2ccc(C(F)(F)F)nc2)nc(-c2cncn2C)c1 [Compound 226] | 0.0127
Cn1cncc1-c1ccnc(C(=O)Nc2ccc(OC3CC(F)(F)C3)nc2)n1 [Compound 319] | 0.006

[A] Cn1cncc1-c1ccnc(C(=O)N[C@H]2CC[C@H](OCc3ccccc3)CC2)n1 [Compound 312]
[B] COCCO[C@H]1CC[C@H](NC(=O)c2cccc(-n3ccnc3)n2)CC1 [Compound 14]
Sort A and B by IC50 descending and give the first. # answer = label of selected item
B
(B: 0.017 µM, A: 0.0102 µM)

###

# testedTarget: mouse CD38 (Mus musculus, UniProt P56528)
# assayNotes: mouse recombinant CD38 enzyme assay (hydrolysis of NAD+)
# experimentalContext: read-out: mCD38 BioChem IC50
pIC50: −log10 of the molar value.
readoutKind: pIC50

Some entries whose results are on file:
Cc1ccc(-n2ccnc2)nc1C(=O)Nc1cccnc1 [Compound 26] | 8.15
CC(C)O[C@H]1C[C@H](NC(=O)c2nccc(-c3cncn3C)n2)C1 [Compound 320] | 6.66
Cn1cncc1-c1nc(C(=O)Nc2ccc(C(C)(C)O)nc2)cc(C2CCOCC2)n1 [Compound 332] | 8.82
O=C(Nc1cccnc1)c1cncc(-n2ccnc2)n1 [Compound 56] | 8.22
Cn1cncc1-c1nc(C(=O)N[C@H]2CC[C@H](OCC(F)(F)F)CC2)cc(C2CCOCC2)n1 [Compound 337] | 8.72

[a] Cn1cncc1-c1nccc(C(=O)Nc2ccc(C(F)F)nc2)n1 [Compound 94]
[b] CO[C@H]1C[C@H](NC(=O)c2cccc(-n3ccnc3)n2)C1 [Compound 23]
[c] Cn1cncc1-c1ccnc(C(=O)N[C@H]2CC[C@H](O)CC2)n1 [Compound 256]
[d] CO[C@H]1CC[C@H](NC(=O)c2cc(C3CC3)nc(-n3ccnc3)n2)CC1 [Compound 160]
[e] Cn1cncc1-c1ccnc(C(=O)Nc2ccc(C(F)(F)F)nc2)n1 [Compound 74]
Order field: pIC50 | Direction: descending (largest first) A complete answer lists every label in the requested sequence.
a, d, e, c, b
